Numbers sourced from patent US20160185837A1.

Below is a list of entries, each paired with its recorded EC50 value.
# MEASURED TARGET: T1, mouse GLP-1 receptor (mGLP-1r) (Mus musculus, UniProt O35659)
# T1 construct: expressed in transfected cells; host or cells: HEK293s or CHO cells
# T1 sequence (O35659 22-463): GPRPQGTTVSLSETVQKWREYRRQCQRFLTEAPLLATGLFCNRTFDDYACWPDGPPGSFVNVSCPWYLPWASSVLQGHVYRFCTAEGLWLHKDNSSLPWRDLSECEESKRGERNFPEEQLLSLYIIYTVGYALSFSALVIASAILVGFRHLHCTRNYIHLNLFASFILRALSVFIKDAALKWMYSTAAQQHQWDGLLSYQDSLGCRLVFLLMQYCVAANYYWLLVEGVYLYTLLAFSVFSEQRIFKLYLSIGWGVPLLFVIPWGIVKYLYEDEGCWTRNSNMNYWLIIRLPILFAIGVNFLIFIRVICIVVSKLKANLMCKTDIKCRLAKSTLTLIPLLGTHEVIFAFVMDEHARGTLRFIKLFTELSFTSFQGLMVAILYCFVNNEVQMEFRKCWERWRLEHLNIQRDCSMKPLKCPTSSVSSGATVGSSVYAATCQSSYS
# EXPERIMENTAL DETAILS: BSA-cAMP assay, cells expressing mouse GLP-1 receptor
# Assay type: cell-based
# CONDITION DETAILS: Batch 1; BSA-cAMP assay; read-out: mGLP1r cAMP activity EC50
EXPERIMENTAL READOUT: EC50 (nM)

>>> df
                                   molecule  limit_sign  endpoint_value
0  IP376 (protein) YSEGTFTSLFSKLLERQAIDEFIAWLLKGGAAAGGSGSTASSGSGSATGGGGAATHTCPPC           =              21
1  IP307 (protein) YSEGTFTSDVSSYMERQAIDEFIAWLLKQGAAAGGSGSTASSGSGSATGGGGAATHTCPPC           =             6.5
2  IP315 (protein) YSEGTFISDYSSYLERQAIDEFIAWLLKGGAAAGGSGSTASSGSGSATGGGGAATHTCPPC           >            5460
3  IP351 (protein) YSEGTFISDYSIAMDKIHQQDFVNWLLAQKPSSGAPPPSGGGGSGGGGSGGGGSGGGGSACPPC           =             820
4  IP309 (protein) YSEGTFISDVSSYLERQAIDEFIAWLLKGGAAAGGSGSTASSGSGSATGGGGAATHTCPPC           =              16
